test system: ANGPTL3 gene; assay: ANGPTL3 gRNA/SpCas9 editing in primary human hepatocytes (Table 3); format: cell-based
ENDPOINT LABEL: Human Primary Hepatocyte Editing % 500 ng/mL

Some solved entries appear below for comparison.
MOLECULE	REPORTED MEASUREMENT
GA110: ANGPTL3 gRNA; protospacer GACCATGTCCCAACTGAAGG (SEQ ID NO: 108) (nucleic acid, 2'-O-methyl at 1, 2, other sugars and backbone not given here; further chemistry not fully specified) guide: GACCATGTCCCAACTGAAGGGTTTTAGAGCTAGAAATAGCAAGTTAAAATAAGGCTAGTCCGTTATCAACTTGAAAAAGTGGCACCGAGTCGGTGCTTTT	13.63%
GA131: ANGPTL3 gRNA; protospacer GAAGATAGAGAAATTTCTGT (SEQ ID NO: 129) (nucleic acid, 2'-O-methyl at 1, 2, other sugars and backbone not given here; further chemistry not fully specified) guide: GAAGATAGAGAAATTTCTGTGTTTTAGAGCTAGAAATAGCAAGTTAAAATAAGGCTAGTCCGTTATCAACTTGAAAAAGTGGCACCGAGTCGGTGCTTTT	18.64%

Next, consider the following molecule.
Kindly note the recorded Human Primary Hepatocyte Editing % 500 ng/mL for GA128: ANGPTL3 gRNA; protospacer TGAAGAAAGGGAGTAGTTCT (SEQ ID NO: 126) (nucleic acid, 2'-O-methyl at 1, 2, other sugars, backbone and T or U not given here; further chemistry not fully specified) guide: UGAAGAAAGGGAGTAGTTCTGTTTTAGAGCTAGAAATAGCAAGTTAAAATAAGGCTAGTCCGTTATCAACTTGAAAAAGTGGCACCGAGTCGGTGCTTTT , which is 25.39%
